System: HL-60(TB) leukemia
assay-notes: NCI tumour cell line growth inhibition, 48 h
The following compounds are shown together with reported TGI values.
property: TGI

[
  {
    "compound": "COc1cccc2c1NC(=O)Cc1c-2[nH]c2ccccc12",
    "reported-measurement": "> 100 µM"
  },
  {
    "compound": "C[C@H](c1ccc(F)cc1CCCC(=O)O)N(c1cc(F)ccc1F)S(=O)(=O)c1ccc(Cl)cc1",
    "reported-measurement": "> 95.1 µM"
  },
  {
    "compound": "Cc1[nH]c(=O)nc(N/N=C/c2ccc(O)cc2)c1C(=O)Nc1ccc(O)cc1",
    "reported-measurement": "> 100 µM"
  },
  {
    "compound": "Cc1cc2cc3cc(C)c(N)cc3nc2cc1N",
    "reported-measurement": "11 µM"
  },
  {
    "compound": "[O-]/N=[N+](/[O-])C1CCCCC1=[N+]1CCOCC1 (stereo not given)",
    "reported-measurement": "> 100 µM"
  },
  {
    "compound": "COc1cc2c(NCCCCCO)ncnc2c(OC)c1OC",
    "reported-measurement": "> 100 µM"
  },
  {
    "compound": "COc1cc(OC)cc(Oc2cnc3cc(N)cc(N)c3n2)c1",
    "reported-measurement": "28 µM"
  },
  {
    "compound": "CN(C)Cc1c(O)ccc2c1c1c(n2C)C(=O)c2ccccc2C1=O",
    "reported-measurement": "> 100 µM"
  },
  {
    "compound": "CC[C@@]1(O)C[C@H](OC2CC(N(C)C)C(O)C(C)O2)c2c(cc3c(c2O)C(=O)c2c(O)ccc(O)c2C3=O)[C@H]1C(=O)OC (stereo not given in full)",
    "reported-measurement": "0.218 µM"
  },
  {
    "compound": "COC(=O)Oc1nn(C(=O)OC)c(=O)c2ccccc12",
    "reported-measurement": "> 100 µM"
  }
]

* * *

Test system: 786-0 renal
assay-notes: NCI tumour cell line growth inhibition, 48 h
property: TGI

[
  {
    "molecule": "Cc1nn(C(=O)c2ccccc2O)c2c1C(c1ccc(O)cc1O)SC(N)=N2 (stereo not given)",
    "reported-measurement": "> 10 µM"
  },
  {
    "molecule": "C[C@@H](N)COc1ccc(-c2cnc3ccc(N[C@H](C)c4cccc(F)c4)nn23)cc1",
    "reported-measurement": "2.74 µM"
  },
  {
    "molecule": "COC(=O)c1c(O)ccc2c1c1cc3ccccc3cc1n2Cc1cc(OC)cc(OC)c1",
    "reported-measurement": "> 100 µM"
  },
  {
    "molecule": "CC(=O)C1=C(C)O[C@@H]2O[C@H](COCc3ccccc3)[C@@H](OCc3ccccc3)[C@H](O)[C@@H]2S1",
    "reported-measurement": "60.6 µM"
  },
  {
    "molecule": "COc1cc(-c2cc3ncccc3c3nc(OCCN(C)C)c4cccnc4c23)cc(OC)c1OC",
    "reported-measurement": "1.16 µM"
  },
  {
    "molecule": "COC(=O)[C@H](CC(C)C)NC(=O)[C@H](Cc1ccccc1)N1CC2C=CC1C2 (stereo not given in full)",
    "reported-measurement": "> 100 µM"
  },
  {
    "molecule": "COC(=O)c1cc(NC(=O)c2cc(NC(=O)c3cc([N+](=O)[O-])n(C)c3)cn2C)cn1C",
    "reported-measurement": "> 100 µM"
  },
  {
    "molecule": "CSc1ncc2c(n1)-c1ccccc1OC2N1CCOCC1 (stereo not given)",
    "reported-measurement": "> 100 µM"
  },
  {
    "molecule": "Cc1ccc([P+](Cc2ccccc2)(c2ccccc2)c2ccccc2)cc1",
    "reported-measurement": "> 100 µM"
  },
  {
    "molecule": "COc1ccc(-n2c(SC(CN3CCOCC3)CN3CCCC3=O)nc3ccccc3c2=O)cc1 (stereo not given)",
    "reported-measurement": "> 100 µM"
  },
  {
    "molecule": "Cc1ccccc1C1=C(c2cn(C)c3ccccc23)C(=O)NC1=O",
    "reported-measurement": "> 25 µM"
  },
  {
    "molecule": "O=C1/C(=C/c2ccc(Cl)cc2)Oc2cc(O)ccc21",
    "reported-measurement": "> 100 µM"
  },
  {
    "molecule": "O=C(NC(=Nc1ccccc1)SCSC(=Nc1ccccc1)NC(=O)c1ccco1)c1ccco1",
    "reported-measurement": "> 100 µM"
  },
  {
    "molecule": "O=C1/C(=C/c2ccc(O)cc2)CCCC1CN1CCCCC1 (stereo not given)",
    "reported-measurement": "2.38 µM"
  },
  {
    "molecule": "COC(=O)Nc1nc2ccc(S(=O)(=O)Nc3ccccn3)cc2[nH]1",
    "reported-measurement": "> 100 µM"
  },
  {
    "molecule": "Cn1c(-c2ccc[se]2)ccc1-c1ccc(C=O)[se]1",
    "reported-measurement": "> 100 µM"
  },
  {
    "molecule": "COc1cc2c(cc1OC)C(C#N)N(C(=O)c1ccccc1)C=C2OC(=O)c1ccccc1 (stereo not given)",
    "reported-measurement": "34.7 µM"
  },
  {
    "molecule": "Cc1c(Cc2ccccc2)n(C(C)OCCN(OC(=O)Oc2ccccc2)C(=O)Oc2ccccc2)c(=O)[nH]c1=O (stereo not given)",
    "reported-measurement": "34.3 µM"
  },
  {
    "molecule": "O=C([O][Hg][c]1ccccc1)c1ccccc1",
    "reported-measurement": "3.5 µM"
  },
  {
    "molecule": "CC1=C/C=C/C(=O)O[C@@H]([C@H](C)[C@H](O)[C@@H](C)NC(=O)C(C)C)[C@H](C)/C=C/C(C)=C/[C@H]2C=CCC[C@@]2(C)\\C=C\\1",
    "reported-measurement": "8.06 µM"
  },
  {
    "molecule": "Nc1nc(Cl)cc(OCC2(CO)CCCC2)n1",
    "reported-measurement": "> 100 µM"
  },
  {
    "molecule": "COc1cccc2c1NC(=O)Cc1c-2[nH]c2ccccc12",
    "reported-measurement": "> 100 µM"
  },
  {
    "molecule": "COc1ccc2c(c1)[n+]([O-])c(-c1cccc(Cl)c1)c(N)[n+]2[O-]",
    "reported-measurement": "> 100 µM"
  },
  {
    "molecule": "CC(C)C(Nc1ncnc2nc[nH]c12)C(=O)O (stereo not given)",
    "reported-measurement": "> 100 µM"
  },
  {
    "molecule": "Cc1cc2c(c(C(=O)NCC(=O)N[C@@H](C)C(=O)OCc3ccccc3)c1)Oc1c(cc(C)cc1C(=O)NCC(=O)N[C@@H](C)C(=O)OCc1ccccc1)S2",
    "reported-measurement": "> 100 µM"
  }
]

* * *

The following compounds are shown together with reported TGI values.
Tested on: A498 renal
assay-notes: NCI tumour cell line growth inhibition, 48 h

[
  {
    "compound": "O=C1/C(=C/c2ccc(O)cc2)CCCC1CN1CCCCC1 (centres undefined)",
    "TGI": "20.4 µM"
  },
  {
    "compound": "COC(=O)[C@H](CC(C)C)NC(=O)[C@H](Cc1ccccc1)N1CC2C=CC1C2 (some centres undefined)",
    "TGI": "> 100 µM"
  },
  {
    "compound": "COC1=CC(c2ccc[nH]2)=N/C1=C\\c1[nH]c(C)c(C(=O)CCC(=O)Oc2ccc3c(c2)CCC2C3CC[C@]3(C)[C@@H](O)CC[C@@H]23)c1C (some centres undefined)",
    "TGI": "8.82 µM"
  },
  {
    "compound": "CC(=O)C(=O)NC1/C=C(C)\\C=C/C(O)C/C=C(C)\\C=C/C(O)CC2OC(=O)C1(C)C(=O)C2C (centres undefined)",
    "TGI": "> 100 µM"
  },
  {
    "compound": "COc1cccc2c1OC1Sc3ccccc3-c3nn(-c4ccccc4)c-2c31 (centres undefined)",
    "TGI": "> 100 µM"
  },
  {
    "compound": "COC(=O)C1=COC2OC3C(C(C)O)C(=O)OC34C=CC1C24 (centres undefined)",
    "TGI": "> 100 µM"
  },
  {
    "compound": "N#CCCN(CCC#N)c1ccc(/C=C(/NC(=O)c2cc([N+](=O)[O-])ccc2Cl)C(=O)NN)cc1",
    "TGI": "> 100 µM"
  },
  {
    "compound": "Oc1c(CN2CCCC2)ccc2cccnc12",
    "TGI": "> 70.3 µM"
  },
  {
    "compound": "CN(C)C(=O)Oc1c(Br)cc(Br)cc1C(=O)OCc1ccccc1",
    "TGI": "71.4 µM"
  }
]

Where these numbers come from: PubChem BioAssay (NCI)
